- TARGET OR SYSTEM: FPR2 (Homo sapiens, UniProt P25090)
- Construct: expressed in transfected cells
- Sequence (P25090 1-351): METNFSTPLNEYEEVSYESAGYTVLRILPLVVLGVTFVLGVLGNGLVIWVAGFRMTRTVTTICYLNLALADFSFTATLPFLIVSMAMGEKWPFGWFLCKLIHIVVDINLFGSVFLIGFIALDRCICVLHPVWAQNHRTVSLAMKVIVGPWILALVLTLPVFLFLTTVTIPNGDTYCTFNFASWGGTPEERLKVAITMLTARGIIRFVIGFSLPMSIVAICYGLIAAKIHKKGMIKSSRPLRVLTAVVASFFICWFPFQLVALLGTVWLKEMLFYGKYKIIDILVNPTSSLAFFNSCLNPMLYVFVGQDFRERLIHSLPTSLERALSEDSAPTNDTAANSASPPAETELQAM
- ASSAY PROTOCOL: Compound-induced calcium activity on FLIPR Tetra in CHO-Gα16 cells stably expressing FPRL1
- Format: cell-based
- CONDITIONS USED: relative efficacy
REPORTED ENDPOINT: FPR2 Ga16-CHO (Rel. eff.)

CCCN(CC(=O)OC(C)(C)C)C(=O)[C@H](CC(C)C)NC(=O)Nc1ccc(Br)cc1    (1.04)
CC(C)C[C@H](NC(=O)Nc1ccc(C(F)(F)F)cc1)C(=O)N(C)CC(=O)O    (1.02)
CC(C)C[C@H](NC(=O)Nc1ccc(C(F)(F)F)cc1)C(=O)N(C)CC(=O)OC(C)(C)C    (1.02)
CCCN(CC(=O)O)C(=O)[C@H](CC(C)C)NC(=O)Nc1ccc(C(F)(F)F)cc1    (1.04)
